Origin of the recorded values: PubChem BioAssay (NCI)

- Test system: NCI-H522 lung
- experiment.notes: NCI-60 one-dose screen, 48 h (100 = growth as untreated, 0 = no growth, -100 = all killed)
- cond: 10 µM unless noted
The panel holds about 83,000 compounds, 20% with a hit somewhere; the sample as a whole holds those more often.
outcome.measure: growth (%)
Please reply with the bare figure in % and do not write the unit itself.

O=C1CSc2ccccc2N1    104
CC1=CC(=Nc2ccc(N(C)C)cc2)C=C(C)C1=O    94.4
N#Cc1ccc2nc[nH]c2c1    102
COC(c1ccc2c(c1)OCO2)C(C)Br (configuration not stated)    84.6
CCCCCCCCCCCCCCCCCCSC(=N)N    90.1

QUERY: # lookup: growth of COc1ccc(/C=N/NC(=O)COCC(=O)N/N=C/c2ccc(OC)cc2)cc1
RESULT: 107

QUERY: # lookup: growth of COc1ccc(Br)c(C=O)c1
RESULT: 98.2

QUERY: # lookup: growth of CC1CCC(C(C)(C)[N+](C)(C)C)CC1 (configuration not stated)
RESULT: 106

QUERY: # lookup: growth of CCOC(=O)c1ccc(NC(C)=O)o1
RESULT: 95.2

QUERY: # lookup: growth of CC(C)C(C)(C)C(=O)C(C)(C)C(C)(C)C
RESULT: 92.4

QUERY: # lookup: growth of CC(CCC#N)(CCC#N)C(=O)c1ccccc1
RESULT: 88.1

---

Recorded growth values for a group of compounds are listed next.
- Test system: BT-549 breast
- experiment.notes: NCI-60 one-dose screen, 48 h (100 = growth as untreated, 0 = no growth, -100 = all killed)
- cond: 10 µM unless noted
This is part of a sample that, as a whole, favours compounds with a hit. Of some 83,000 tested, about 20% had one in any assay. Active and inactive are the calls of the source. How the source made its calls: active means growth percent below 10; inactive means the rest.

Please review the following examples before continuing.
CCCCCCCCNC(=O)C(C)C    107% (inactive)
CCC12OC(COc3ccccc3)CN1CCN2c1ccccc1 (stereo not given)    105% [100 µM] (inactive)
Nc1ccc2ccccc2c1-c1c(N)ccc2ccccc12    61.5% (inactive)

QUERY: # lookup: growth of O=C1NC(=O)C(c2ccccc2)O1 (stereo not given)
RESULT: 99.6% (inactive)

QUERY: # lookup: growth of N#CC1(O)CCCCC1
RESULT: 93.9% (inactive)

---

- Test system: OVCAR-8 ovarian
- experiment.notes: NCI-60 one-dose screen, 48 h
- cond: 10 µM unless noted
About 83,000 compounds went through this panel and 20% of them were active in at least one assay; those are over-represented in the sample as a whole. Activity calls are given as the source filed them. Rule for the calls: active = growth percent below 10; inactive = the rest.
# output must be one of active, inactive

The examples below pair each entry with its known result.
CC(c1ccccc1)N1C(=O)CSC1=S (stereo unspecified)    inactive
CCOc1ccc(C(=O)O)cc1    inactive
Cc1ccc(S(=O)(=O)Oc2ccc3sc4c(CO)ccc(NCCN(C)C)c4c(=O)c3c2)cc1    active

For the next question, use this compound.
QUERY: Please state the recorded outcome for this compound: Nc1ncnc(Nc2ccccc2)n1
RESULT: inactive

---

- Test system: DU-145 prostate
- experiment.notes: NCI-60 one-dose screen, 48 h (100 = growth as untreated, 0 = no growth, -100 = all killed)
- cond: 10 µM unless noted
- Procedure: Cells are grown in 96 well plates and exposed to the test compound for 48 hours. Compounds are tested at a single concentration, which is 10^-5 M for most compounds. The reported endpoint is percent growth (GI% or GIPRCNT), where numbers from 0 - 100% represent growth inhibition, and numbers from -100% - 0 represent cell death. For example, a value of 40 represents 60% growth inhibition. A value of 0 means no net growth occurred over the course of the experiment. […]
About 83,000 compounds went through this panel and 20% of them were active in at least one assay; those are over-represented in the sample as a whole.
outcome.measure: growth (%)
Please reply with the bare figure in % and do not write the unit itself.

Please review the following examples before continuing.
CCC1CCC(C)NC1 (stereo not drawn)    107
Clc1ncnc2nc[nH]c12    91
N#CCCN1C(=O)CCC1C(=O)O (stereo not drawn)    114
CC(=O)NCNC(C)=O    118
CC(=O)OCC1CCC(COC(C)=O)CC1 (stereo not drawn)    102
Cc1ccc(S(=O)(=O)CCCl)cc1    112
CC(C)Sc1ncnc2nc[nH]c12    121
CCCCOC(=O)c1ccccc1O    120
OCCc1ccc(Cl)cc1    109
Clc1cccc(Cl)c1CSc1nc2ccccc2n2cccc12    92.8

QUERY: # lookup: growth of O=C(O)C1CCCN1C(=O)OCc1ccccc1 (stereo not drawn)
RESULT: 118

QUERY: # lookup: growth of Cc1[nH]c(=S)[nH]c(=O)c1C
RESULT: 110

QUERY: # lookup: growth of O=C1Nc2ccccc2/C1=C\c1ccccc1O
RESULT: 88.6

QUERY: # lookup: growth of CC(=O)c1cccc(O)c1
RESULT: 105

QUERY: # lookup: growth of CN(C(=S)S(=O)(=O)C12CC3CC(CC(C3)C1)C2)c1ccccc1
RESULT: 95.3

QUERY: # lookup: growth of Ic1cccs1
RESULT: 107

QUERY: # lookup: growth of CCCCCCCCCCCCCCCCCCSC(=N)N
RESULT: 59.2

QUERY: # lookup: growth of COc1nc(Nc2cccc(C(F)(F)F)c2)nc(OC)n1
RESULT: 105
